PROCEDURE_DETAILS: chemical genetic growth profiling, strain panel (AID 1159580);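 further: tested at 20 µM; growth read once vehicle control cultures reached saturation at 30 °C; 1 = growth at the plate median or of vehicle wells; lower values mean less growth of the strain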
ASSAY_CONTEXT: S. cerevisiae deletion strains, growth OD, locus YHR129C, strain ARP1, hits give low values
Among all 5,500 compounds or so, about 2,000 (36%) were called active. Inconclusive results (about 18%) are left out. Some of the results follow.
PROPERTY: normalized growth
Respond with the number and no other words.

Request: GET /values?readout=normalized growth&item= OCC(O)C(O)C(O)C(O)C(O)CO (centres undefined)
Result: 1.02

Request: How about "COc1ccc2ccc(=O)oc2c1" ?
Result: 1.02

Request: Param item: CC(C)(C)NCC(O)c1cc(O)cc(O)c1 (centres undefined)
Result: 1

Request: Note, next up: "COc1c(C(C)C)oc2cc3oc(=O)ccc3cc12"
Result: 0.901

Request: Here is the next compound: CCCC(C)(COC(N)=O)COC(=O)NC(C)C (centres undefined)
Result: 0.988

---

PROCEDURE_DETAILS: chemical genetic growth profiling, strain panel (AID 1159580);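 further: tested at 20 µM; growth read once vehicle control cultures reached saturation at 30 °C; 1 = growth at the plate median or of vehicle wells; lower values mean less growth of the strain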
ASSAY_CONTEXT: S. cerevisiae deletion strains, growth OD, locus YEL061C, strain CIN8 (second series), hits give low values
Out of some 5,500 compounds screened, about 2,000 (36%) were called active. Another 18% or so got no clear call; they are omitted. The list shows a part of the results.
PROPERTY: normalized growth
Number only, please.

In [3]: df
Out[3]:
                                   compound  observed_result
0                Cc1cc(C2CCCCC2)n(O)c(=O)c1           0.0671
1  CCCCCc1c2c(cc(O)c1C(=O)O)OC(=O)c1c(cc(OC)cc1C(=O)CCCC)O2             1.02
2  CC(C)(C)NCC(O)c1cc(O)cc(O)c1 (stereo unspecified)            0.977
3  NC(=O)c1ncn([C@@H]2O[C@H](CO)[C@@H](O)[C@H]2O)n1            0.994

Request: Fill blank: measured normalized growth of the compound "CN(C)c1ccc2nc3ccc(=[N+](C)C)cc-3sc2c1" is ____.
Result: 1.04

Request: Same for "CNC(=O)Oc1cccc2c1OC(C)(C)O2"
Result: 1.01

Request: Proceed to CC(=O)O[C@]1(C(C)=O)CCC2C3C=C(Cl)C4=CC(=O)[C@@H]5C[C@@H]5[C@]4(C)C3CC[C@@]21C (stereo partly specified)
Result: 1.01

Request: Follow-up entry: COc1ccc2c(c1)CCC1C2CCC2(C)C1C[C@@H](O)C2O (stereo partly specified)
Result: 1.01

Request: And for "CCCCCC(=O)Cc1cc(O)cc(O)c1C(=O)Oc1cc(CC(=O)CCCCC)c(C(=O)O)c(OC)c1" ?
Result: 0.946

Request: What do we get for O=c1ccc2cc(OC3OC(CO)C(O)C(O)C3O)c(O)cc2o1 (stereo unspecified) ?
Result: 0.984

Request: Subsequent entry: "COc1ccccc1/C=C\C(=O)O"
Result: 0.992

---

PROCEDURE_DETAILS: chemical genetic growth profiling, strain panel (AID 1159580);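 further: tested at 20 µM; growth read once vehicle control cultures reached saturation at 30 °C; 1 = growth at the plate median or of vehicle wells; lower values mean less growth of the strain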
ASSAY_CONTEXT: S. cerevisiae deletion strains, growth OD, locus YCR088W, strain abp1
Hit rate of the full screen: of about 5,500 compounds, about 2,000 (36%) were called active. Not shown: some 18% with an inconclusive outcome. Rule as the data show it: active = normalized growth mostly below about 0.91 (no sharp cut-off); inconclusive = no clear call, values can overlap the other calls; inactive = mostly above about 0.92. The list shows a part of the results.
Respond with a class label; see label 1 (active), label 0 (inactive)

Here's what some known entries look like.
MOLECULE	CATEGORY_LABEL
CCCCCCC(C)OC(=O)COc1ccc(Cl)cc1Cl (configuration not stated)	label 0
CCCCOc1cc(C(=O)NCCN(CC)CC)c2ccccc2n1	label 0
COc1cc(OC)c2ccc(=O)oc2c1	label 0
COC1=CC(=O)C(C(=O)c2ccccc2)=CC1=O	label 0
C[C@@H]1O[C@@H](OC[C@H]2OC(Oc3c(-c4ccc(O)c(O)c4)oc4cc(O)cc(O)c4c3=O)[C@H](O)[C@@H](O)[C@@H]2O)[C@H](O)[C@H](O)[C@H]1O (some centres not stated)	label 0
C[C@]12CCC3c4ccc(OS(=O)(=O)O)cc4CCC3C1CC[C@H]2O (some centres not stated)	label 0

Request: In this assay, the call recorded for CC(CC(O)C1OC1(C)C)[C@@H]1CCC2(C)C3=CCC4C(C)(C)C(=O)CCC4(C)C3CC[C@@]12C (some centres not stated) was what?
Result: label 0

Request: And "C[C@@H]([C@H](O)c1ccccc1)N(C)C" ?
Result: label 0
